Parameter: activation at 0.1 µM. Scope: all listed entries.
Target: glucocerebrosidase (Gcase) (Homo sapiens)
Sequence (P04062 40-536): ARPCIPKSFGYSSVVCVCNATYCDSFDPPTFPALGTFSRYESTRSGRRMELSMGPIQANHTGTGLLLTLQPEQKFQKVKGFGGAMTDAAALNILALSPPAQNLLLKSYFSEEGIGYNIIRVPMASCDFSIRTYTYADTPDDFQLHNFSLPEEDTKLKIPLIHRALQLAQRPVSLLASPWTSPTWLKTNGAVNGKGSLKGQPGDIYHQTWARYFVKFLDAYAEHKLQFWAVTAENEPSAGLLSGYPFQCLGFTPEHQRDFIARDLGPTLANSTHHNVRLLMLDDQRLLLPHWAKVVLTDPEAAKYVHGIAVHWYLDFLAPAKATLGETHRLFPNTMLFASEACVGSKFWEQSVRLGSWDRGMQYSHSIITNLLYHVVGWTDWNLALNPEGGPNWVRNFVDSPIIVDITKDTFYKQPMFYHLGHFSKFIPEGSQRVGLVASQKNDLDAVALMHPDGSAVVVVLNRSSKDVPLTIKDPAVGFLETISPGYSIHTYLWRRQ
Assay: Glucocerebrosidase (Gcase) activation assay, 4-methylumbelliferyl-beta-D-glucopyranoside substrate, fluorescence
Assay type: biochemical
Details: 0.25 h, pH 4.7, test compound at 0.1 μM, 10 nM GCase, 100 nM saposin C, read-out: Percent Gcase Activation 0.1 μM Test Compound

Cc1cc(C2CCOCC2)nc2c(C(=O)NC(C)(C)C3CC3)ccn12 [III-36]: < 10%
Cc1cc(C)n2ccc(C(=O)NC(C)C3Oc4ccccc4C3C)c2n1 (stereo not drawn) [IV-87]: 10 to 20%
Cc1cc(C)n2ccc(C(=O)NC(C)c3ccccc3F)c2n1 (stereo not drawn) [IV-108]: 10 to 20%
COc1cccc([C@@H](C)NC(=O)c2ccn3c(C)cc(C)nc23)c1 [IV-32]: 10 to 20%
Cc1cc(-c2cccc(C(N)=O)c2)nc2c(C(=O)NC(C3CC3)C(F)(F)F)ccn12 (stereo not drawn) [IV-7]: > 20%

# query: activation at 0.1 µM | item Cc1cc(C)n2ccc(C(=O)NC(C)C3(c4ccccc4)CCCC3)c2n1 (stereo not drawn) [IV-73] | system: glucocerebrosidase (Gcase) (Homo sapiens) > 20%

# query: activation at 0.1 µM | item C[C@H](NC(=O)c1ccn2ccc(-c3ccc(F)cc3)nc12)C1CC1 [III-47] | system: glucocerebrosidase (Gcase) (Homo sapiens) < 10%

# query: activation at 0.1 µM | item COCc1cc(C)n2ccc(C(=O)NC(C)(C)C3CC3)c2n1 [III-15] | system: glucocerebrosidase (Gcase) (Homo sapiens) 10 to 20%

# query: activation at 0.1 µM | item COc1ccc(F)cc1C(C)NC(=O)c1ccn2c(C)cc(C)nc12 (stereo not drawn) [IV-74] | system: glucocerebrosidase (Gcase) (Homo sapiens) > 20%

* * *

experiment: Compound solubility in water; type: physicochemical
ENDPOINT: solubility (µg/mL)

Here's what some known entries look like.
Cc1cccc(C2CC2C(C)NC(=O)c2ccn3c(C)cc(C)nc23)c1 (centres unmarked): 1.1
CCC(NC(=O)c1ccn2c(C)cc(C)nc12)c1cccc(C)n1 (centres unmarked): 17.6
Cc1nc2c(C(=O)NC(C)(C)C3CC3)ccn2c2c1CCC2: 1.5

[P] COCC(NC(=O)c1ccn2c(C)cc(C)nc12)c1ccccc1 (centres unmarked)
[Q] Cc1cc(-c2cccnc2)nc2c(C(=O)NC(C)(C)C3CC3)ccn12
Recorded solubility values differ for P and Q ; which one is higher? Use the label to indicate which entry you chose. P

* * *

Molecular target: glucocerebrosidase (Gcase) (Homo sapiens, UniProt P04062)
Sequence (P04062 40-536): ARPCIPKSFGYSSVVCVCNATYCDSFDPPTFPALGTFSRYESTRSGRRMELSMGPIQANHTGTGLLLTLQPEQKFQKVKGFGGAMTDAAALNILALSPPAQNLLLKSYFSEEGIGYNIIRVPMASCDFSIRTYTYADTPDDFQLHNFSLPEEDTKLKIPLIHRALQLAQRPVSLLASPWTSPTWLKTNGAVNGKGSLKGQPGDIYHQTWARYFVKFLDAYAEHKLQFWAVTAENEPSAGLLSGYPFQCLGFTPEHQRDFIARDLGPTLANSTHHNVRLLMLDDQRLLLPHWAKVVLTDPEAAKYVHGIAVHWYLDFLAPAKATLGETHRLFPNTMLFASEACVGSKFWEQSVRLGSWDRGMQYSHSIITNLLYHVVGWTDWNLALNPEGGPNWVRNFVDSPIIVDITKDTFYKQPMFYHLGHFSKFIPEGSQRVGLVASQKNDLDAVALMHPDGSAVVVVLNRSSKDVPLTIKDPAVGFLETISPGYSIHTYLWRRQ
Assay: Glucocerebrosidase (Gcase) activation assay, 4-methylumbelliferyl-beta-D-glucopyranoside substrate, fluorescence
Format: biochemical
Conditions: 0.25 h, pH 4.7, test compound at 1.0 μM, 10 nM GCase, 100 nM saposin C, read-out: Percent Gcase Activation 1 μM Test Compound
ENDPOINT: activation at 1 µM

Here's what some known entries look like.
Cc1cc(C)n2ccc(C(=O)NC3(C4CC4)CC3)c2n1 [III-22]: > 60%
Cc1cc(-c2cccnc2)nc2c(C(=O)NC(C)(C)C3CC3)ccn12 [III-41]: > 60%
COc1cc(C)n2ccc(C(=O)NC(C)(C)C3CC3)c2n1 [III-13]: > 60%
Cc1cc(C)n2ccc(C(=O)NC(CO)C34CC5CC(CC(C5)C3)C4)c2n1 (centres unmarked) [IV-34]: 30 to 60%

# query: activation at 1 µM | item Cc1cc(C)n2ccc(C(=O)NC(C)c3ccc4c(c3)OCO4)c2n1 (centres unmarked) [IV-45] | system: glucocerebrosidase (Gcase) (Homo sapiens, UniProt P04062) 30 to 60%

# query: activation at 1 µM | item Cc1cc(C)n2c(F)cc(C(=O)N[C@@H](C)C3CC3)c2n1 [IV-17] | system: glucocerebrosidase (Gcase) (Homo sapiens, UniProt P04062) > 60%

# query: activation at 1 µM | item COc1ccccc1[C@@H](C)NC(=O)c1ccn2c(C)cc(C)nc12 [IV-29] | system: glucocerebrosidase (Gcase) (Homo sapiens, UniProt P04062) > 60%

# query: activation at 1 µM | item Cc1cc(C)n2ccc(C(=O)NC(CO)c3ccc4ccccc4c3)c2n1 (centres unmarked) [IV-90] | system: glucocerebrosidase (Gcase) (Homo sapiens, UniProt P04062) < 30%

* * *

molecular target: glucocerebrosidase (Gcase) (Homo sapiens); test: Glucocerebrosidase (Gcase) activation assay, 4-methylumbelliferyl-beta-D-glucopyranoside substrate, fluorescence; format: biochemical; conditions: 0.25 h, pH 4.7, test compound at 0.1 μM, 10 nM GCase, 100 nM saposin C, read-out: Percent Gcase Activation 0.1 μM Test Compound
Parameter: activation at 0.1 µM. Scope: all listed entries.

Cc1ccc([C@H](C)NC(=O)c2ccn3c(C)cc(C)nc23)cc1: 10 to 20%
Cc1cc(C)n2ccc(C(=O)N[C@H](C)c3cccc4c3CCCC4)c2n1: 10 to 20%
Cc1cc(-c2cccnc2)nc2c(C(=O)N[C@H]3CC[C@H](OCC(C)(C)C)CC3)ccn12: > 20%

# query: activation at 0.1 µM | item Cc1cccc(C2CC2C(C)NC(=O)c2ccn3c(C)cc(C)nc23)c1 (stereo not shown) | system: glucocerebrosidase (Gcase) (Homo sapiens) > 20%

# query: activation at 0.1 µM | item CCOc1ccc(C(C)NC(=O)c2ccn3c(C)cc(C)nc23)cc1 (stereo not shown) | system: glucocerebrosidase (Gcase) (Homo sapiens) > 20%

# query: activation at 0.1 µM | item `Cc1cc(C)n2ccc(C(=O)N[C@H](C)C3CC3)c2n1` | system: glucocerebrosidase (Gcase) (Homo sapiens) < 10%

# query: activation at 0.1 µM | item `Cc1ccnc2c(C(=O)NC3(c4ccccc4OC4CC4)CC3)ccn12` | system: glucocerebrosidase (Gcase) (Homo sapiens) < 10%

# query: activation at 0.1 µM | item `CCCCO[C@H]1CC[C@H](NC(=O)c2ccn3c(C)cc(N4CCOCC4)nc23)CC1` | system: glucocerebrosidase (Gcase) (Homo sapiens) 10 to 20%

* * *

target: glucocerebrosidase (Gcase) (Homo sapiens, UniProt P04062); experiment: Glucocerebrosidase (Gcase) activation assay, 4-methylumbelliferyl-beta-D-glucopyranoside substrate, fluorescence; format: biochemical; settings: 0.25 h, pH 4.7, test compound at 1.0 μM, 10 nM GCase, 100 nM saposin C, read-out: Percent Gcase Activation 1 μM Test Compound
Parameter: activation at 1 µM. Scope: all listed entries.

Here's what some known entries look like.
Cc1cc(C)n2ccc(C(=O)N[C@@H](C)c3cccc4c3CCCC4)c2n1: > 60%
Cc1cc(C)n2ccc(C(=O)NC(C)c3ccccc3-n3cccn3)c2n1 (stereo not shown): 30 to 60%
Cc1cc(C)n2ccc(C(=O)NC(C)c3ccccc3C)c2n1 (stereo not shown): > 60%
Cc1cc(C)n2ccc(C(=O)NC(C)(C)c3cccc(Cl)c3)c2n1: > 60%
Cc1nc2c(C(=O)NC(C)(C)C3CC3)ccn2c2c1CCC2: > 60%
COc1ccc(C(C)NC(=O)c2ccn3c(C)cc(C)nc23)cc1F (stereo not shown): > 60%
Cc1cc(C)n2ccc(C(=O)NC(C)c3nc4ccccc4n3C)c2n1 (stereo not shown): < 30%
C[C@H](NC(=O)c1ccn2ccc(-c3ccc(F)cc3)nc12)C1CC1: 30 to 60%
Cc1cc(Br)nc2c(C(=O)NC(C)(C)C3CC3)ccn12: > 60%

We now examine a further molecule.
What activation at 1 µM value was documented for this molecule, Cc1cc(C)n2ccc(C(=O)NC(CC(C)C)c3cccnc3)c2n1 (stereo not shown) ? 30 to 60%
